Give MIC50 for every item shown.
Test system: Staphylococcus xylosus
experimental.details: Antibacterial activity against methicillin-susceptible coagulase-negative Staphylococcus xylosus clinical isolate by broth microdilution method
Type: functional
Please give the number followed by its unit.

Consider the reported MIC50 for these compounds:
- compound: "CC(=O)NC[C@H]1CN(c2ccc(N3CCOCC3)c(F)c2)C(=O)O1 [LINEZOLID]"
  MIC50: "1 µg/mL"
- compound: "CCCCCCCCCCNCCN[C@@]1(C)C[C@H](O[C@H]2[C@H](Oc3c4cc5cc3Oc3ccc(cc3Cl)[C@@H](O)[C@@H](NC(=O)[C@@H](CC(C)C)NC)C(=O)N[C@@H](CC(N)=O)C(=O)N[C@H]5C(=O)N[C@H]3C(=O)N[C@H](C(=O)N[C@H](C(=O)O)c5cc(O)c(CNCP(=O)(O)O)c(O)c5-c5cc3ccc5O)[C@H](O)c3ccc(c(Cl)c3)O4)O[C@H](CO)[C@@H](O)[C@@H]2O)O[C@@H](C)[C@H]1O [TELAVANCIN]"
  MIC50: "0.25 µg/mL"
- compound: "CN[C@H](CC(C)C)C(=O)N[C@H]1C(=O)N[C@@H](CC(N)=O)C(=O)N[C@H]2C(=O)N[C@H]3C(=O)N[C@H](C(=O)N[C@H](C(=O)O)c4cc(O)cc(O)c4-c4cc3ccc4O)[C@H](O)c3ccc(c(Cl)c3)Oc3cc2cc(c3O[C@@H]2O[C@H](CO)[C@@H](O)[C@H](O)[C@H]2O[C@H]2C[C@](C)(N)[C@H](O)[C@H](C)O2)Oc2ccc(cc2Cl)[C@H]1O [VANCOMYCIN]"
  MIC50: "1 µg/mL"

Next compound, please.
Measured MIC50 of CCCCCCCCCC(=O)N[C@@H](Cc1c[nH]c2ccccc12)C(=O)N[C@H](CC(N)=O)C(=O)N[C@@H](CC(=O)O)C(=O)N[C@@H]1C(=O)NCC(=O)N[C@@H](CCCN)C(=O)N[C@@H](CC(=O)O)C(=O)N[C@H](C)C(=O)N[C@@H](CC(=O)O)C(=O)NCC(=O)N[C@H](CO)C(=O)N[C@@H]([C@H](C)CC(=O)O)C(=O)N[C@@H](CC(=O)c2ccccc2N)C(=O)O[C@@H]1C : 0.5 µg/mL
